test system: PBMC; assay: Cytotoxicity against human PBMC cells at 50 ug/mL after 24 hrs by MTT assay relative to DMSO-treated control; type: cell-based
Quantity Name: Activity

Examples with their reported Activity follow.
>>> df
                               smiles_input  experimental_value
0  Cc1ccc(S(=O)(=O)NCCCN2c3ccc(Cl)cc3Sc3cc4ccccc4nc32)cc1           Non-toxic
1  CSc1ccc2c(c1)Sc1cc3ccccc3nc1N2CCCNC(C)=O           Non-toxic
2  CS(=O)(=O)NCCCCN1c2ccc(Cl)cc2Sc2cc3ccccc3nc21           Non-toxic
3  CSc1ccc2c(c1)Sc1cc3ccccc3nc1N2CCCCNC(C)=O                7.9%

Answer for every listed entry: what is its Activity? The entries follow.
1. CS(=O)(=O)NCCCN1c2ccc(Cl)cc2Sc2cc3ccccc3nc21
2. CC(=O)NCCCN1c2ccc(Cl)cc2Sc2cc3ccccc3nc21

stdout:
1: Non-toxic; 2: Non-toxic
